Target: Factor D (Homo sapiens (Human))
Sequence (P00746 26-253): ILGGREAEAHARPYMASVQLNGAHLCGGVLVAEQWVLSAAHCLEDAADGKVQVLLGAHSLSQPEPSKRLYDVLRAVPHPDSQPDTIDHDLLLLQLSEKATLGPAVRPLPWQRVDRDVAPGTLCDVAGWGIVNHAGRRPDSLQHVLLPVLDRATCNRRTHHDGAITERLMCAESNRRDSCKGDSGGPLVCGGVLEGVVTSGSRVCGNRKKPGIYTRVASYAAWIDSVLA
Experiment: biochemical
Assay type: biochemical
Settings: read-out: IC50
pIC50: −log10 of the molar value.
Respond with yes (1) for pIC50 values of 7 and above, no (0) for values below.

query: Does pIC50 meet or surpass 7 for NC(=O)n1cc(NC(=O)N2[C@H](C(=O)NCc3cccc(Cl)c3F)C[C@@]3(CO)C[C@@H]23)c2ccccc21 ?
result: yes (1)

query: Can Cc1cc2c(C(N)=O)nn(CC(=O)N3[C@@H]4C[C@@H]4C[C@H]3C(=O)NCc3cccc(Cl)c3F)c2cn1 be said to have pIC50 at or above 7?
result: yes (1)

query: Dear colleague, could you confirm whether NC(=O)n1cc(NC(=O)N2[C@@H]3C[C@@H]3C[C@H]2C(=O)NCc2ccccc2F)c2cc(O)ccc21 has pIC50 at or above 7?
result: yes (1)

query: Please check the record NC(=O)n1cc(NC(=O)N2CC[C@H]2C(=O)Nc2cccc(OC(F)(F)F)c2)c2ccccc21 and state if its pIC50 is at or above 7.
result: no (0)

query: Has CC(=O)c1nn(CC(=O)N2[C@@H]3C[C@@H]3C[C@H]2C(=O)Nc2cccc(Br)n2)c2ccc(OCc3ncccn3)cc12 a recorded pIC50 greater than or equal to 7?
result: yes (1)

query: Hi team, for COC(=O)c1cc(Cl)c(F)c(CNC(=O)[C@@H]2C[C@@H](F)CN2C(=O)Nc2cn(C(N)=O)c3ccccc23)c1 , is the recorded pIC50 at or above 7?
result: yes (1)

query: Check if pIC50 >= 7 (inclusive). Item: NC(=O)c1nn(CC(=O)N2C[C@H](F)C[C@H]2C(=O)Nc2cccc(OC(F)(F)F)c2F)c2ccccc12
result: yes (1)

query: API: above_or_equal(metric=pIC50, cutoff=7) for item NC(=O)n1cc(CC(=O)N2[C@@H]3C[C@@H]3C[C@H]2C(=O)N[C@H](CO)c2cccc(Cl)c2F)c2ccccc21
result: yes (1)

query: Check if pIC50 >= 7 (inclusive). Item: CC(=O)n1cc(NC(=O)N2C[C@@H](CO)C[C@H]2C(=O)NCc2cccc(Cl)c2F)c2ccccc21
result: no (0)

query: # check: pIC50 of COC[C@@H](NC(=O)[C@@H]1C[C@H]2C[C@H]2N1C(=O)Nc1cn(C(N)=O)c2ccccc12)c1cccc(Cl)c1F is greater than or equal to 7
result: yes (1)

query: Tell me whether pIC50 is at least 7 here: CC(C)c1cc(NC(=O)[C@@H]2CCCN2C(=O)Nc2cn(C(N)=O)c3ccccc23)on1
result: no (0)

----------
Target: Factor D (Homo sapiens (Human))
Assay: biochemical
Type: biochemical
Settings: read-out: IC50
Please provide measured log10 of IC50 for the entries that follow.
Transform log10 | Measure IC50 | Unit µM

query: Please give the measured log10 of IC50 for this compound: NC(=O)n1cc(NC(=O)N2CCS[C@H]2C(=O)NCc2cccc(Cl)c2)c2ccccc21 [Example 174]
result: -1.46

query: Tell me the measured log10 of IC50 of COCCOc1ccc2c(C(N)=O)cn(CC(=O)N3C[C@H](F)C[C@H]3C(=O)NCc3cccc(Cl)c3F)c2c1 [Example 591] , please.
result: -0.96

query: For the compound CO[C@H]1[C@@H](C(=O)NCc2cccc(Cl)c2F)N(C(=O)Nc2cn(C(N)=O)c3ccccc23)C[C@@H]1F [Example 204] , what log10 of IC50 is on record?
result: -2.15

query: # log10 of IC50 lookup, item NC(=O)c1cn(CC(=O)N2C[C@H](F)C[C@H]2C(=O)NCc2cccc(Cl)c2F)c2ccccc12 [Example 476]
result: -1.48

query: Which measured log10 of IC50 value corresponds to NC(=O)c1cn(CC(=O)N2C[C@H](F)C[C@H]2C(=O)NCc2cccc(Cl)c2F)c2ccc(Cl)cc12 [Example 488] ?
result: -0.60

query: Which log10 of IC50 value belongs to CC(=O)c1cn(CC(=O)N2[C@@H]3C[C@@H]3C[C@H]2C(=O)Nc2cccc(Br)n2)c2ccncc12 [Example 751] ?
result: -1.09

query: Which log10 of IC50 is reported for this compound? CN1CCN(C(=O)c2cc(Cl)c(F)c(CNC(=O)[C@@H]3C[C@@H](F)CN3C(=O)Nc3cn(C(N)=O)c4ccccc34)c2)CC1 [Example 322]
result: -0.46

query: Please look up its log10 of IC50: Cc1nccc2c(C(N)=O)nn(CC(=O)N3[C@@H]4C[C@@H]4C[C@H]3C(=O)Nc3cccc(OC(F)(F)F)c3F)c12 [Example 716]
result: -1.34

query: Look up log10 of IC50: CC(=O)c1nn(CC(=O)N2[C@@H]3C[C@@H]3C[C@H]2C(=O)NC2(c3cccc(Cl)c3F)COC2)c2ncccc12 [Example 633]
result: -1.26

query: Name the reported log10 of IC50 value associated with the compound COC[C@@H](NC(=O)[C@@H]1C[C@H]2C[C@H]2N1C(=O)Cc1nc(C(C)=O)c2ccccn12)c1cccc(Cl)c1F [Example 678]
result: -1.40

query: Param item = NC(=O)n1cc(NC(=O)N2CCC[C@H]2C(=O)NCc2cccc(Cl)c2F)c2ccccc21 [Example 170] ; retrieve measured log10 of IC50.
result: -1.52

query: Data request, read-out log10 of IC50, for O=C(Nc1cccc(OC(F)(F)F)c1)[C@@H]1CCCN1C(=O)Nc1cn(C(=O)CO)c2ccccc12 [Example 366]
result: 0.51

query: Give the measured log10 of IC50 of NC(=O)n1cc(NC(=O)N2C[C@H](F)C[C@H]2C(=O)NCc2ccccc2C(=O)O)c2ccccc21 [Example 23] .
result: 0.27

query: Dear colleague, I am looking for the recorded log10 of IC50 of the following compound: C[C@@]12C[C@@H](C(=O)Nc3cccc(OC(F)(F)F)c3F)N(C(=O)Cn3nc(C(N)=O)c4ccncc43)[C@@H]1C2 [Example 738]
result: -1.03

query: Would you kindly share the measured log10 of IC50 for NC(=O)n1cc(NC(=O)N2CC[C@H](F)[C@H]2C(=O)NCc2cccc(Cl)c2F)c2ccccc21 [Example 208] ?
result: -1.54

query: Would you kindly share the measured log10 of IC50 for COc1cccc2c(C(N)=O)cn(CC(=O)N3C[C@H](F)C[C@H]3C(=O)NCc3cccc(Cl)c3F)c12 [Example 477] ?
result: -0.20

query: Returns the measured log10 of IC50 for the input compound. Input: CC(=O)N[C@@H]1CN(C(=O)Nc2cn(C(N)=O)c3ccccc23)[C@H](C(=O)NCc2cccc(Cl)c2F)[C@H]1F [Example 211]
result: 0.12

query: What does the data say about its log10 of IC50? Entry: NC(=O)n1cc(NC(=O)N2C[C@@H](N)C[C@H]2C(=O)Nc2cccc(-c3ccccc3)c2)c2ccccc21 [Example 103]
result: -0.26

query: # lookup: log10 of IC50 of NC(=O)n1cc(NC(=O)N2N=CC[C@@H]2C(=O)NCc2cccc(Cl)c2F)c2ccccc21 (single isomer, unassigned) [Example 363]
result: 0.97

query: Looking for the measured log10 of IC50 of CN(C)C[C@@H](NC(=O)[C@@H]1C[C@H]2C[C@H]2N1C(=O)Cc1cn(C(N)=O)c2ccccc12)c1cccc(Cl)c1F [Example 458] , can you help?
result: -0.77

query: Dear colleague, I am looking for the recorded log10 of IC50 of the following compound: NC(=O)n1cc(NC(=O)N2CCS[C@H]2C(=O)NCc2cccc(F)c2F)c2ccccc21 [Example 169]
result: -0.57

query: // returns reported log10 of IC50 for input COc1ccc2c(NC(=O)N3C4CC4C[C@H]3C(=O)NCc3cccc(Cl)c3F)cn(C(N)=O)c2c1 (stereo partly shown) [Example 216]
result: -1.19

query: Which log10 of IC50 reading was recorded for the compound NC[C@@]1(O)C[C@@H](C(=O)NCc2cccc(Cl)c2F)N(C(=O)Nc2cn(C(N)=O)c3ccccc23)C1 [Example 407] ?
result: 0.02

query: Returns the measured log10 of IC50 for the input compound. Input: NC(=O)n1cc(NC(=O)N2CC[C@@H](O)[C@H]2C(=O)NCc2cnc(Cl)s2)c2ccccc21 [Example 283]
result: -0.05

query: Name the recorded log10 of IC50 for Cc1ccnc(CNC(=O)[C@@H]2C[C@@H](F)CN2C(=O)Nc2cn(C(N)=O)c3ccccc23)c1F [Example 304] .
result: -0.19

query: Which value of log10 of IC50 has been reported for COCCN(C)Cc1cc(Cl)c(F)c(CNC(=O)[C@@H]2C[C@@H](F)CN2C(=O)Nc2cn(C(N)=O)c3ccccc23)c1 [Example 4] in the records?
result: 0.60

query: What value of log10 of IC50 has been reported for the following compound? CO[C@@H]1C[C@@H](C(=O)Nc2cccc(OC(F)(F)F)c2)N(C(=O)Nc2cn(C(N)=O)c3ccccc23)C1 [Example 316]
result: 0.49

query: What value of log10 of IC50 has been reported for the following compound? Cc1ccnc(CNC(=O)[C@@H]2C[C@H](N)CN2C(=O)Nc2cn(C(N)=O)c3ccccc23)c1 [Example 67]
result: 1.35
